# test_protocol: collision cross section in nitrogen (drift tube, single-field); higher = larger gas-phase ion size;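 further: chemical standards at 10 µM analysed by drift tube IMS-QTOF MS in about 3.95 torr nitrogen, mean of duplicate injections differing ≤1%, mass error below 10 ppm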
# setup_conditions: ion type: [M+H]; ion source: ESI; ion mode: Positive
endpoint_name: collision cross section in nitrogen (Å²)
API: value field is a number in Å²; no unit string.

// solved cases for collision cross section in nitrogen follow
compound | unit_spec | collision cross section in nitrogen
NC(=O)N1c2ccccc2C=Cc2ccccc21 [Carbamazepine] | Å² | 150.1
CC(C)N(Cc1ccccc1)C(=O)C(C)(C)C [Butam] | Å² | 154.5
COc1ccc(OC(F)(F)F)cc1CN[C@H]1CCCN[C@H]1c1ccccc1 | Å² | 183.3
S=P(N1CC1)(N1CC1)N1CC1 [Thiotepa] | Å² | 132.5
COC(=O)C(C)N(C(=O)c1ccco1)c1c(C)cccc1C (stereo not given) [Furalaxyl] | Å² | 161.4

Now examine the next entry.
Request: # lookup: collision cross section in nitrogen of c1ccc(CCCc2ccncc2)cc1 [4-(3-Phenylpropyl)pyridine]
Response: 146.1

----------
# test_protocol: collision cross section in nitrogen (drift tube, single-field); higher = larger gas-phase ion size
# setup_conditions: ion type: [M+H]; ion source: APCI; ion mode: Positive
Where a name gives a salt, the structure may show the parent alone.
endpoint_name: collision cross section in nitrogen (Å²)
API: value field is a number in Å²; no unit string.

// solved cases for collision cross section in nitrogen follow
compound | endpoint_name | endpoint_value
Nc1nc2ccc([N+](=O)[O-])cc2s1 [2-Amino-6-nitrobenzothiazole] | collision cross section in nitrogen | 144.1
C=C1C[C@H]2[C@@H]3C=C(C)C4=CC(=O)CC[C@]4(C)[C@H]3CC[C@]2(C)[C@@]1(OC(C)=O)C(C)=O [Melengestrol acetate] | collision cross section in nitrogen | 201.5
CCCN(C1CCN(C(=O)C2CCNCC2)CC1)[C@@H]1CCc2ccc(OC)cc2C1 | collision cross section in nitrogen | 209

Request: # lookup: collision cross section in nitrogen of Cc1cc(CCN2CCN(c3nsc4ccccc34)CC2)cc2c1NC(=O)CC2(C)C
Response: 202.2

Request: # lookup: collision cross section in nitrogen of CN(CCOc1ccc(CC2SC(=O)NC2=O)cc1)c1ccccn1 (centres undefined) [Rosiglitazone maleate]
Response: 172.4

Request: # lookup: collision cross section in nitrogen of CCN(CC)c1ccc(C(=O)c2ccccc2C(=O)O)c(O)c1 [2-[4-(Diethylamino)-2-hydroxybenzoyl]benzoic acid]
Response: 177.2

Request: # lookup: collision cross section in nitrogen of CCCCCCCCCCCCNC(=N)N [Dodecylguanidine acetate]
Response: 175.2

Request: # lookup: collision cross section in nitrogen of O=C(Oc1ccc(Br)cc1)N1CCN2CCC1CC2 [4-Bromophenyl 1,4-diazabicyclo(3.2.2)nonane-4-carboxylate]
Response: 177.7

Request: # lookup: collision cross section in nitrogen of Cc1nc(C)nc(N2C[C@@H](C)N(c3ccnc([C@@H](C)O)n3)[C@@H](C)C2)n1
Response: 191.2

----------
This listing pairs compounds with measured collision cross section in nitrogen.
# test_protocol: collision cross section in nitrogen (drift tube, single-field); higher = larger gas-phase ion size
# setup_conditions: ion type: [M+]; ion source: APCI; ion mode: Positive
Structures can show the parent of a compound that is named as a salt.
Be sure to follow the number with its unit.

compound | endpoint_value
CCc1ccc(O)cc1 | 123.4 Å²
Cc1ccnc2ccccc12 [Lepidine] | 125.4 Å²
CCOc1cc(C(C)(C)C)ccc1C1COC(c2c(F)cccc2F)=N1 (stereo not given) | 186.5 Å²
CCC(Cc1c(I)cc(I)c(N)c1I)C(=O)O (stereo not given) | 171.5 Å²

Now examine the next entry.
Request: # lookup: collision cross section in nitrogen of COc1cc(-c2ccc(N)c(OC)c2)ccc1N [C.I. Disperse Black 6 dihydrochloride]
Response: 156.1 Å²
